- Test system: MDA-MB-468
- testDetails: Anticancer activity against human MDA-MB-468 cells measured at 48 hrs
- Type: functional
metric: log10 of TGI (log10 of the value in µM)
Transform log10 | Measure TGI | Unit µM

Log: MDA-MB-468, compound Cc1ccc(-c2nc3nc(-c4ccc(F)cc4)nc(N4CCCNCC4)c3o2)cc1 , log10 of TGI = 0.50

Param item: Cc1ccc(-c2nc3nc(-c4ccc(Cl)cc4)nc(N4CCCNCC4)c3o2)cc1 ; param system: MDA-MB-468; output log10 of TGI: 0.53

Lab note: compound Cc1ccc(-c2nc(N3CCCNCC3)c3oc(-c4ccccc4)nc3n2)cc1 tested on MDA-MB-468; recorded log10 of TGI was 0.51

Tested on MDA-MB-468: Cc1ccc(-c2nc3nc(-c4ccc(F)cc4)nc(N4CCNCC4)c3o2)cc1 . Observed log10 of TGI: 0.53

Item: c1ccc(-c2nc(N3CCCNCC3)c3oc(-c4ccccc4)nc3n2)cc1 | System: MDA-MB-468 | log10 of TGI: 0.46

The value of log10 of TGI recorded for c1ccc(-c2nc(N3CCNCC3)c3oc(-c4ccccc4)nc3n2)cc1 when tested on MDA-MB-468 reads 0.53

Tested system MDA-MB-468; log10 of TGI recorded for c1ccc(-c2nc(N3CCNCC3)c3nc(-c4ccccc4)oc3n2)cc1 was 0.56

Param item: Cc1ccc(-c2nc3nc(-c4ccccc4)nc(N4CCNCC4)c3o2)cc1 ; param system: MDA-MB-468; output log10 of TGI: 0.07

Bench note, MDA-MB-468: Cc1ccc(-c2nc3nc(-c4ccc(Br)cc4)nc(N4CCCNCC4)c3o2)cc1 , log10 of TGI reads 1.20

So the reported log10 of TGI for c1ccc(-c2nc(N3CCCNCC3)c3nc(-c4ccccc4)oc3n2)cc1 , on MDA-MB-468, turned out to be 0.53

Field log10 of TGI (system: MDA-MB-468) for entry Cc1ccc(-c2nc(N3CCNCC3)c3oc(-c4ccccc4)nc3n2)cc1 = 0.58

MDA-MB-468 data for Cc1ccc(-c2nc(N3CCNCC3)c3oc(-c4ccc(C)cc4)nc3n2)cc1 ; its log10 of TGI: 0.68

The measured log10 of TGI that Cc1ccc(-c2nc(N3CCCNCC3)c3oc(-c4ccc(C)cc4)nc3n2)cc1 showed for MDA-MB-468 is 0.64

Assay MDA-MB-468, sample Cc1ccc(-c2nc3nc(-c4ccccc4)nc(N4CCCNCC4)c3o2)cc1 , log10 of TGI read: 0.53

----------
- Test system: MDA-MB-231
- testDetails: Anticancer activity against human MDA-MB-231 cells measured at 48 hrs
- Assay type: functional
metric: TGI (µM)
Report as a plain number; the unit µM is understood.

Value sought: TGI, system MDA-MB-231, item Cc1ccc(-c2nc3nc(-c4ccc(Cl)cc4)nc(N4CCCNCC4)c3o2)cc1 . Result: 3.37

Reading of TGI for Cc1ccc(-c2nc3nc(-c4ccc(Br)cc4)nc(N4CCCNCC4)c3o2)cc1 with MDA-MB-231: 4.05

Record c1ccc(-c2nc(N3CCCNCC3)c3oc(-c4ccccc4)nc3n2)cc1 / MDA-MB-231, TGI recorded as 2.97

For Cc1ccc(-c2nc3nc(-c4ccc(F)cc4)nc(N4CCNCC4)c3o2)cc1 on MDA-MB-231, measured TGI was 3.63

So the reported TGI for Cc1ccc(-c2nc3nc(-c4ccccc4)nc(N4CCNCC4)c3o2)cc1 , on MDA-MB-231, turned out to be 0.67

Item Cc1ccc(-c2nc(N3CCNCC3)c3oc(-c4ccccc4)nc3n2)cc1 was tested on MDA-MB-231; the reported TGI is 3.06

TGI of Cc1ccc(-c2nc(N3CCCNCC3)c3oc(-c4ccc(C)cc4)nc3n2)cc1 , assay on MDA-MB-231, is 3.11

Entry Cc1ccc(-c2nc(N3CCCNCC3)c3oc(-c4ccccc4)nc3n2)cc1 ; assay system MDA-MB-231; TGI recorded at 3.27

Lab note: compound c1ccc(-c2nc(N3CCCNCC3)c3nc(-c4ccccc4)oc3n2)cc1 tested on MDA-MB-231; recorded TGI was 3.21

Note to self: TGI of Cc1ccc(-c2nc3nc(-c4ccc(F)cc4)nc(N4CCCNCC4)c3o2)cc1 with MDA-MB-231 was 3.11

----------
- Test system: Hs-578T
- testDetails: Anticancer activity against human Hs-578T cells measured at 48 hrs
- Format: functional
// classify: if (LC50 (50% lethal concentration) < 9 µM) Condition met else Condition not met

Item Cc1ccc(-c2nc3nc(-c4ccc(F)cc4)nc(N4CCCNCC4)c3o2)cc1 : LC50 (50% lethal concentration) beneath 9 µM, strictly? Condition met

Say whether its LC50 (50% lethal concentration) is strictly beneath 9 µM. Entry: c1ccc(-c2nc(N3CCCNCC3)c3nc(-c4ccccc4)oc3n2)cc1 Condition met

In plain terms, does Cc1ccc(-c2nc3nc(-c4ccc(Br)cc4)nc(N4CCCNCC4)c3o2)cc1 come in under 9 µM for LC50 (50% lethal concentration)? Condition not met

Here's an entry: Cc1ccc(-c2nc(N3CCNCC3)c3oc(-c4ccc(C)cc4)nc3n2)cc1 . Is its LC50 (50% lethal concentration) below 9 µM? Condition not met

Does the reported LC50 (50% lethal concentration) of Cc1ccc(-c2nc(N3CCNCC3)c3oc(-c4ccccc4)nc3n2)cc1 stay below 9 µM? Condition not met

Say whether its LC50 (50% lethal concentration) is strictly beneath 9 µM. Entry: Cc1ccc(-c2nc3nc(-c4ccc(F)cc4)nc(N4CCNCC4)c3o2)cc1 Condition not met

----------
- Test system: MDA-MB-231
- testDetails: Anticancer activity against human MDA-MB-231 cells measured at 48 hrs
- Type: functional
metric: GI50
// return the numeric value with its unit appended

Value of GI50 reported for the compound Cc1ccc(-c2nc3nc(-c4ccccc4)nc(N4CCCNCC4)c3o2)cc1 is 1.81 µM

GI50 in this record for Cc1ccc(-c2nc(N3CCNCC3)c3oc(-c4ccc(C)cc4)nc3n2)cc1 : 1.74 µM

Sample Cc1ccc(-c2nc3nc(-c4ccccc4)nc(N4CCNCC4)c3o2)cc1 ; GI50 observed: 0.26 µM

Measured GI50 of Cc1ccc(-c2nc(N3CCNCC3)c3oc(-c4ccccc4)nc3n2)cc1 : 1.62 µM

Kindly note the recorded GI50 for Cc1ccc(-c2nc3nc(-c4ccc(F)cc4)nc(N4CCNCC4)c3o2)cc1 , which is 1.86 µM

Memo: c1ccc(-c2nc(N3CCCNCC3)c3nc(-c4ccccc4)oc3n2)cc1 , reported GI50: 1.72 µM

Short answer for Cc1ccc(-c2nc3nc(-c4ccc(F)cc4)nc(N4CCCNCC4)c3o2)cc1 : GI50 was 1.63 µM

Item: Cc1ccc(-c2nc(N3CCCNCC3)c3oc(-c4ccccc4)nc3n2)cc1 | GI50: 1.77 µM

Entry c1ccc(-c2nc(N3CCNCC3)c3nc(-c4ccccc4)oc3n2)cc1 ; GI50 = 1.67 µM

Entry under test: Cc1ccc(-c2nc3nc(-c4ccc(Br)cc4)nc(N4CCCNCC4)c3o2)cc1 . Its GI50 was 1.93 µM

----------
- System: MDA-MB-231
- testDetails: Anticancer activity against human MDA-MB-231 cells measured at 48 hrs
- Format: functional
metric: TGI (µM)
# unit: µM | format: bare number

The molecule identified as c1ccc(-c2nc(N3CCNCC3)c3oc(-c4ccccc4)nc3n2)cc1 registered its TGI at 3.28

So for Cc1ccc(-c2nc3nc(-c4ccccc4)nc(N4CCCNCC4)c3o2)cc1 , the logged TGI turned out to be 3.32

Quick note, TGI for c1ccc(-c2nc(N3CCNCC3)c3nc(-c4ccccc4)oc3n2)cc1 landed at 3.2

Record summary for Cc1ccc(-c2nc(N3CCNCC3)c3oc(-c4ccc(C)cc4)nc3n2)cc1 : reported TGI = 3.44

----------
- Test system: MDA-MB-231
- testDetails: Anticancer activity against human MDA-MB-231 cells measured at 48 hrs
- Type: functional
metric: GI50 (µM)
State the answer as a number, implicitly in µM.

GI50 for Cc1ccc(-c2nc3nc(-c4ccc(Cl)cc4)nc(N4CCCNCC4)c3o2)cc1 is 1.87

Looking up c1ccc(-c2nc(N3CCCNCC3)c3oc(-c4ccccc4)nc3n2)cc1 , I see its GI50 listed as 1.56

Summary for this compound, Cc1ccc(-c2nc(N3CCCNCC3)c3oc(-c4ccc(C)cc4)nc3n2)cc1 : GI50 is 1.69

Memo: c1ccc(-c2nc(N3CCNCC3)c3oc(-c4ccccc4)nc3n2)cc1 , reported GI50: 1.76
